Cited source for all entries: the supplement of paper PMC3334620

- Subject of test: Stb5 (UniProt P38699)
- Sequence: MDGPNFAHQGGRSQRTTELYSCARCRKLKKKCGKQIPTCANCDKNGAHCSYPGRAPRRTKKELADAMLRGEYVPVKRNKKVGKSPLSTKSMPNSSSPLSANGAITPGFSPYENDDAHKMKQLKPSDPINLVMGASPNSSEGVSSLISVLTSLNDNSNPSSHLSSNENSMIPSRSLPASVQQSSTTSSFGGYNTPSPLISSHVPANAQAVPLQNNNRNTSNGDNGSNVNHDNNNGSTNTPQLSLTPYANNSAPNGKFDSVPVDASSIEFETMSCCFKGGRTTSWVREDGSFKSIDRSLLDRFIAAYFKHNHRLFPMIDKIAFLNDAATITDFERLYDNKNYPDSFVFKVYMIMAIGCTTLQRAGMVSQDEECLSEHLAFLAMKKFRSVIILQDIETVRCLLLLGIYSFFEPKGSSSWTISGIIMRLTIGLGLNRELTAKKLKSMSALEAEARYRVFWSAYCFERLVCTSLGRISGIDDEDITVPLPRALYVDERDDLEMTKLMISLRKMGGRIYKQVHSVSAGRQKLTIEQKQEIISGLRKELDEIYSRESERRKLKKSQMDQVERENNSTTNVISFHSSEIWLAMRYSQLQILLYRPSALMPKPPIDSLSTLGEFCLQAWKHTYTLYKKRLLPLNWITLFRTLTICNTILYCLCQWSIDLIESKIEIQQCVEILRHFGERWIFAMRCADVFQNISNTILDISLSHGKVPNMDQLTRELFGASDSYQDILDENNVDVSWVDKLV
- Method description: PBM E-score (8-mer binding enrichment) (E-score (-0.5 to 0.5)); higher = stronger / more preferred TF binding
- Condition notes: protein concentration: 200 nM; construct: GST-full length
In all, about 33,000 sequences were measured (“E-score (-0.5 to 0.5)”: median about -0.054, highest 2% from about 0.35 on). The list comes from a sample in which the highest values are over-represented; it also holds close analogues and randomly drawn sequences.
Note: every record was labeled by where its PBM E-score sits among lower (below -0.05), middle (-0.05 to below 0.3), upper (0.3 or more)

Worked set:
ACAAAGCA
lower
ATAAGGGG
middle
TACGGTGA
middle

-- ask Bin? "AATGTCCG"
-- reply upper

-- ask State the band of "ATCGGATG"
-- reply middle

-- ask In plain terms, what class is "ACATACCG" ?
-- reply middle

-- ask Exercise: read the entry "AATACCCT" and state which class it falls under.
-- reply middle

-- ask Entry "ACGTTGAA" belongs to which category?
-- reply lower

-- ask Bin? "GATACCGC"
-- reply upper

###

- Subject of test: Stb5 (UniProt P38699)
- Sequence: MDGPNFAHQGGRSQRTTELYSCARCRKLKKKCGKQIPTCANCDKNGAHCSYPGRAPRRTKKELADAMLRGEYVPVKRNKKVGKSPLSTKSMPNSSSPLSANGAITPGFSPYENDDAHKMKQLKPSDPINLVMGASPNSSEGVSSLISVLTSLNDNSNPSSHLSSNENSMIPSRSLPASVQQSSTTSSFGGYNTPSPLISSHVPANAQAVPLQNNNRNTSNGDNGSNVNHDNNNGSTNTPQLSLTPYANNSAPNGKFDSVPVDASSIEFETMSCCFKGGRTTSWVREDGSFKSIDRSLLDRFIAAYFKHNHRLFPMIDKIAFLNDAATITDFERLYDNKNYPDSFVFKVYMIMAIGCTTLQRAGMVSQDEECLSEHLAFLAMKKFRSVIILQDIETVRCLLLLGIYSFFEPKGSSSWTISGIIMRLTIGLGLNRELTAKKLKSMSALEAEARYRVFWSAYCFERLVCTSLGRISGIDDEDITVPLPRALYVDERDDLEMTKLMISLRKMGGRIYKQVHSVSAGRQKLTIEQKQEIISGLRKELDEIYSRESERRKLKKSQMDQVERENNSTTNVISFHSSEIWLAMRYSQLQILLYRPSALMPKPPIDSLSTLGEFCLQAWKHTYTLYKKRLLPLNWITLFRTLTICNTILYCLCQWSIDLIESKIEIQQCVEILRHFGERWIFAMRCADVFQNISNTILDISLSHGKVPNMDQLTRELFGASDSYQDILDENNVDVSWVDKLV
- Method description: PBM E-score (8-mer binding enrichment) (E-score (-0.5 to 0.5)); higher = stronger / more preferred TF binding
- Condition notes: protein concentration: 200 nM; construct: GST-full length
Over roughly 33,000 sequences, “E-score (-0.5 to 0.5)” has its median near -0.054; the highest 2% begin near 0.35. The full list was thinned out, with the highest values kept by preference.
Measure: PBM E-score
Please respond with just the number, no unit label.

Record excerpt, results attached:
AACACCGG
0.474
CCCGAACC
0.144

-- ask Sample "CAGCAGGG" — what was its PBM E-score?
-- reply -0.0502

-- ask Name the reported PBM E-score value associated with the sequence "TCGCCCCA"
-- reply -0.317

-- ask Given the sequence "CGCGATCC" , what is its reported PBM E-score?
-- reply 0.0632

-- ask Which PBM E-score reading was recorded for the sequence "AGTTGCTG" ?
-- reply -0.167

-- ask Looking for the measured PBM E-score of "CCTCTCCG" , can you help?
-- reply -0.171

-- ask Quick check: PBM E-score of "CCTTGACA" ?
-- reply -0.071

-- ask PBM E-score for "CACACCGC" ?
-- reply 0.394
